Test: luciferase luminescence interference by compounds, confirmation, artefact control for SENP inhibitor project, biochemical, single concentration, SENP8 reaction pre-completed (AID 488919);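 further: plate controls were DMSO wells with completed reaction for no effect and substrate without enzyme for full effect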
Settings: Pre-incubated SENP8/Z-RLRGG-aminoluciferin, at 12.5 µM
The list shows a part of the results. The source made the active and inactive calls.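 How the source made its calls: active means mean inhibition above about 50% when retested at one dose (limit read from the data); inactive means the rest.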
The reply should be one of these categories: active, inactive

Dear all, I need the recorded test outcome for `CN(CCO)c1ccc(/C=N/Nc2nncc3ccccc23)cc1` , thank you.
active

Dear all, I need the recorded test outcome for `C(=N\Nc1ccc2ccccc2n1)/c1ccc2c(c1)OCO2` , thank you.
active

Dear all, I need the recorded test outcome for `O=C(Nc1ccn(Cc2ccccc2)n1)c1n[nH]c([N+](=O)[O-])c1Cl` , thank you.
active

Dear all, I need the recorded test outcome for `CC(=O)N1C(=O)/C(=C2\SC(=S)N(NC(=O)c3ccc(O)cc3)C2=O)c2ccccc21` , thank you.
inactive

Dear all, I need the recorded test outcome for `Oc1ccc(N=Nc2nccs2)c(O)c1` , thank you.
active

Now consider the entry below.
Dear all, I need the recorded test outcome for `COc1ccc(C(=O)Nc2ccccc2C(=O)N/N=C/c2ccc(O)c(OC)c2)cc1` , thank you.
active

----------
Assay: TRAIL sensitizers in caspase-8 expressing neuroblastoma cells, dose response, NB7 cells plus caspase-8, luminescence, panel (AID 652002)
Conditions: NB7 neuroblastoma +caspase-8, no TRAIL, compound-alone cytotoxicity counter-screen, luminescence viability, NB7+Caspase-8, run 1; at 12.5 µM (top of the series) unless noted
Task for the reader: assign each of the following molecules its reported activity, % sensitization.
Answers are plain numbers, in %.

The reported value for CCCCCc1cc(=O)oc2c(C(CCN(CC)CC)c3cc(OC)c(OC)c(OC)c3)c(OC)cc(OC)c12 (stereo unspecified) in terms of activity, % sensitization is -1

The reported value for `C(=C\c1ccco1)/c1nc2ccccc2[nH]1` in terms of activity, % sensitization is -6.68

The reported value for `CCOc1ccc(-c2cc(C(=O)N3CCC(C)CC3)c3ccccc3n2)cc1` in terms of activity, % sensitization is -3.22

The reported value for `COc1cccc(NC(=O)c2ccc3c(c2)OCO3)c1` in terms of activity, % sensitization is 48

The reported value for `O=c1cc(-c2ccccc2)nc2cc(-c3ccc(F)cc3)[nH]n12` in terms of activity, % sensitization is -19

Please state, for each entry, its recorded activity, % sensitization.
1. C/C(=N\NC(=O)c1n[nH]c2c1CCC2)c1ccco1
2. O=C(Nc1ccc2[nH]ccc2c1)c1cccs1
3. CC(C)CCn1cnc2c([nH]c3cccc(Cl)c32)c1=O

27.9
46.5
-4.11

----------
Task for the reader: assign each of the following compounds its reported inhibition.
Target: PEG-3 (UniProt Q6IN02)
Sequence (Q6IN02 whole entry, looked up): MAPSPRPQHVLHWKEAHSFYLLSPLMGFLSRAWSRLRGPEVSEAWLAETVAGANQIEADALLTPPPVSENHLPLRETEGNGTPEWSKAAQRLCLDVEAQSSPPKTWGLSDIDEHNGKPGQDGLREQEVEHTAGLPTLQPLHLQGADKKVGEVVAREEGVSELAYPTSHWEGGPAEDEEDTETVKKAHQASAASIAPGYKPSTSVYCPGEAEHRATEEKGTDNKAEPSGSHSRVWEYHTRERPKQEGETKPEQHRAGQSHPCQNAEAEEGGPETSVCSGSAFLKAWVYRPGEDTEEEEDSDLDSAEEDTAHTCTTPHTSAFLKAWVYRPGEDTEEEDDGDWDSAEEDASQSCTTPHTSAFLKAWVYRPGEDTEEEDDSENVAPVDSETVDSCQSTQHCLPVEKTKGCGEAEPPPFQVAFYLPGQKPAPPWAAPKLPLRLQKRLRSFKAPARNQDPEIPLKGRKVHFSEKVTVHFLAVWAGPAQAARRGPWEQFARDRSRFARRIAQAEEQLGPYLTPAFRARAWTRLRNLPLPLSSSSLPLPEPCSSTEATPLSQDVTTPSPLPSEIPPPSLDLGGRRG
Test: Peg3 promoter luciferase inhibitors, potency, dose response, cell-based, HeLa, CREF/GAPDH counter-screen panel (AID 624167)
Details: CREF/GAPDH counter-screens; HeLa PEG-Prom luciferase reporter, overnight, run 2, dose range 1, at 100 µM (top of the series) unless noted
Give bare numbers, in %.

Please state, for each entry, its recorded inhibition.
1. c1cncc(-c2nc(NCC3COc4ccccc4O3)c3ccccc3n2)c1 (centres undefined)
2. CN(C)c1ccc(C(C(=O)NCc2ccccc2)N(Cc2ccco2)C(=O)c2snc(C(N)=O)c2N)cc1 (centres undefined)
3. Cn1nnnc1Sc1ncnc2scc(-c3ccc4c(c3)OCO4)c12
4. Cc1ccc(N2CC(C(=O)Nc3nccs3)CC2=O)cc1Cl (centres undefined)

[99.8, 29.3, 97.4, 63.6]

Please state, for each entry, its recorded inhibition.
1. CC(=O)c1sc2c(c1OC(=O)c1ccc(Cl)cc1Cl)c(=O)n(-c1ccccc1)c(=S)n2-c1ccccc1
2. O=C(CSc1nc(Nc2ccccc2)nc(N2CCOCC2)n1)Nc1cc(Cl)ccc1O
3. O=C(Nc1ccccc1)NN(C(=O)CCl)c1ccccc1
4. N/C(=N\OC(=O)c1ccccc1)C(C(=O)NOC(=O)c1ccccc1)C1CCCCC1 (centres undefined)

96.3
101
101
102

Measured inhibition for this entry `O=C(C[C@H]1C[C@H](C(=O)N2CCCCC2)[C@@]2(CCc3ccccc3)c3[nH]c4ccc(Cl)cc4c3CCN2C1=O)NCCc1ccccn1` on PEG-3 (UniProt Q6IN02): 93.1
